- Tested on: PPARg homodimer (NR concentration 180 nM)
- method notes: PBM binding z-score (relative to random genomic background probes); higher = stronger binding; sequences stand for … in GC…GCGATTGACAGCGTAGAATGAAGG
Below: a set of entries, each annotated with reported PBM binding z-score.
value kind: PBM binding z-score

>>> value_observed("CCGACTGGGGCAGAAAGATTACCATACCATCCGG")
-0.627
>>> value_observed("CCTACTGAGCCACGAAAGGTCATTGATTCAGTGA")
3.9
>>> value_observed("TTACCAAGGCGAAGGTCGTTGATCCCTCTGTAGA")
1.25
>>> value_observed("CGAACGAGGGCATGAGTTGATGGCAAATGCCGAT")
-0.031
>>> value_observed("CCGACTGGGGCATAACGTTACCATAAGCCAGCCC")
-0.33
>>> value_observed("CCTACTGGGCCAAAAAGGTTATTGATGCCGATAA")
0.601
>>> value_observed("TCTAGTTGGTCAAAGGTCACCCACTCGAAATGCG")
6.47
>>> value_observed("CTCGAAAGGTCGGTTGAGGTGAGTATACGGATAA")
0.927
>>> value_observed("CAAACTAGGTCACCGGAAGGTCAAAGCCCGCATG")
5.32
>>> value_observed("ACAGACAGGTGAGGAAGGTAACTCAGGCTATCAT")
-0.277
>>> value_observed("TGAATGAGGTTAAAGATCAGGGAACGTGGCGTCG")
1.15
>>> value_observed("TCTACTTGGTCAAAGGTCACACACTCGAAATGCG")
4.9
>>> value_observed("GGAACGATGGCAAAGTTGATAGCATCTGTCGACG")
-0.819
>>> value_observed("CCTAGCAGGCCAGGGTCATTCAAGCATTTCGCTT")
1.59
>>> value_observed("ATCTCTAGGTAAAAGTGCAGTGAATCCCGAGGAT")
0.819
>>> value_observed("GCGACTTGGGCAAAGCAGGTTACCATAAGGTTGG")
-0.641
>>> value_observed("CGAACGAGTGCATGAGTTGATAGCAAATGCCGAT")
-0.0589

---

- Test system: RARb homodimer (NR concentration 270 nM)
- method notes: PBM binding z-score (relative to random genomic background probes); higher = stronger binding; sequences stand for … in GC…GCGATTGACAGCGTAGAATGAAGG
Hi, to clarify the labels: Yes covers PBM binding z-score from 0.5 upward, No covers anything below 0.5.

>>> assigned_label("AATACAGGGTCATCGTAAGCCAGAGTACGCACAG")
"Yes"
>>> assigned_label("ATCGAAAGGTCGAGAGGTGAGTATACAGAAAGGC")
"Yes"
>>> assigned_label("ATCGAAAGCTCGAGGTGAGTATAGAGAAAGGGAA")
"No"
>>> assigned_label("TAGACTAGGTCATGGGCCAGTATACCACGCGAAC")
"Yes"
>>> assigned_label("TCTTGTAGATCCACAGGAGGTTAAGAAAGATCGA")
"Yes"
>>> assigned_label("CCTCCAAGGTCAAAGGTCAGTGAAGAGATGACGG")
"Yes"
>>> assigned_label("GTAGACAGGTGAAACGCAGGTAACTCAGGGTGGC")
"No"

---

- Tested on: VDR:RXRa (NR concentration 270 nM, RXRa partner concentration 90 nM)
- method notes: PBM binding z-score (relative to random genomic background probes); higher = stronger binding; sequences stand for … in GC…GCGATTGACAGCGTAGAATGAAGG
Entries are sorted into classes by PBM binding z-score as follows: zone 1 = under 0.5, zone 2 = from 0.5 up to 2, zone 3 = 2 and over

>>> assigned_label("CCTAGTTGGTCAAGGTCATACACGCTATAGGTAC")
"zone 3"
>>> assigned_label("TCGAGTAGGTTAGCGGCATTCAGAATGGCGTCGA")
"zone 1"
>>> assigned_label("GCGACTGAGGCAAAGCAGGTTACCATAAGGTTGG")
"zone 1"
>>> assigned_label("ATCGAAAGGTCGACGAGGTTAGTATACACCGTTT")
"zone 3"
>>> assigned_label("CCTCGGAGGACAACAGGAGGTCAGAGGTGCCAGA")
"zone 3"
>>> assigned_label("ACTATTAGTTGACTTATGGCAACCGATACGACGC")
"zone 1"
>>> assigned_label("CAAACTAGGTCACGGAGGTCAAAGTCCGTGCGTA")
"zone 3"
>>> assigned_label("AGTCAAAGTTCACTAGGAAACGTAAGATTCAGCT")
"zone 3"
>>> assigned_label("TCATATAGGCAATACAGGTGAAAGTCGGCATCTA")
"zone 2"
>>> assigned_label("ATATGTAGGTTACATACGGGTCATTCAGGCTATG")
"zone 3"
>>> assigned_label("AGAACGAGGGCACGCTGAGTTGATAGTAGAGTAG")
"zone 3"
>>> assigned_label("TAAATGAGGTTAAAGATCAGGGAACGTGGCGTCG")
"zone 3"
>>> assigned_label("TCTAGCAGGCCAGAGGGTCACTCCAGAGGTACGG")
"zone 2"
>>> assigned_label("TCAGACAGGTGAGGGTAACTCAGGTACGCAGTCG")
"zone 2"
>>> assigned_label("GCTGCTATGTCAACTGATGGTCAGCTAAAGCTCG")
"zone 1"
>>> assigned_label("AGAATGAGGTTTAGATCAGGGAAACAGAATACAT")
"zone 1"
>>> assigned_label("CCGCCTGGGGCAAAGGTTACCATACTCAGTACGA")
"zone 2"
>>> assigned_label("GCCGCTAGGTCAACTGATGGTCAGCTAAAGCTCG")
"zone 2"
>>> assigned_label("ACTATTAGTTCACTTAGGGCAACCGATACGACGC")
"zone 3"
>>> assigned_label("GTTCCAAGGTGAATAGGTCGTTGATGAGTAGGCG")
"zone 2"
>>> assigned_label("GCGACTGGGGCAGAGCAGGTTACCATAAGGTTGG")
"zone 1"
>>> assigned_label("CTACCAAGGTGAGCAAGGTCGTTGATTACTATTC")
"zone 3"
>>> assigned_label("ACTATTAGTTGAGACGAGGGCCACCGATAGGTTG")
"zone 1"
>>> assigned_label("TCTAGTTGGTCAAAGGTCACAAACTCGAAATGCG")
"zone 3"
>>> assigned_label("CCCAGTTGGTCAAGGTCACACACGCTATAGGTAC")
"zone 3"
>>> assigned_label("GGAACGGGGGCAAAGTTGATAGCATCTGTCGACG")
"zone 3"
>>> assigned_label("GGAACGAGCGCATTCGAGTTGATAGCATGGCGAT")
"zone 1"
>>> assigned_label("CGAACTAGGTCTTTGACAGGACAGTGAATAGTAA")
"zone 1"
>>> assigned_label("TAGCCTGGGTCAGATCGGGCCAGTATACGCTATA")
"zone 1"
>>> assigned_label("TCGAGTAGGTTAGGCGGGGCATTCAGCCAACATA")
"zone 2"
>>> assigned_label("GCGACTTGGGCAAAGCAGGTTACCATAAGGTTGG")
"zone 1"
>>> assigned_label("TAGCCCAGGTCAGATCGGGCCAGTATACGCTATA")
"zone 2"
>>> assigned_label("ACTAGTTGGTCAGCTGAGGTCACACATAATTCGG")
"zone 3"
>>> assigned_label("CTACCACGGTGAACAAGGTCGTTGATTACTATTC")
"zone 3"
>>> assigned_label("ATCTCTAGGTAAAAGTTCAGTGACTCCCGAGGAT")
"zone 2"
>>> assigned_label("TTACCAAGGTGGAAGGTCGTTGATGCACGCCTTG")
"zone 1"
>>> assigned_label("ACAGACAAGTGATGAAGGTAACTCAGGCTATCAT")
"zone 1"
